- Tested on: IMR-90 (non-malignant lung fibroblasts)
- ASSAY_PROCEDURE: MTT antiproliferative assay in IMR-90 cells
- Type: cell-based
- TEST_CONTEXT: Homo sapiens, 72 hrs treatment, read-out: MTT Antiproliferative Activity - IC50 (μM) IMR0 (non-malignant lung fibroblasts)
Listed below: IC50 values for each entry.

stdin: Quick check: IC50 of CCC#CCCCCCCCC(O)C#CC(F)(F)Br (stereo not drawn) [MNR-1-147] ?
stdout: 4 µM

stdin: Same for CCCC(O)C#CC(F)(F)Br (stereo not drawn) [MNR-1-122]
stdout: 1.1 µM

stdin: Same for CCCCCC(O)C#CC(F)(F)SCc1ccccc1 (stereo not drawn) [MNR-1-111]
stdout: > 10 µM

stdin: Same for CCCCCC(Cl)C#CC(F)(F)Br (stereo not drawn) [MNR-1-102]
stdout: > 10 µM

stdin: Same for CCCCCC(O)C#CC(F)F (stereo not drawn) [MNR-3-91]
stdout: > 10 µM

stdin: Same for CCCCCC(O)C#CC(F)(F)F (stereo not drawn) [JAB-4-156]
stdout: > 10 µM

stdin: Same for C#CC(O)CCCCC (stereo not drawn) [Compound 1-Octyn-3-ol, 1-Octyn-3-ol]
stdout: > 10 µM

stdin: Same for CCCCCC(C#CC(F)(F)Br)OC (stereo not drawn) [JAB-4-155]
stdout: > 10 µM

stdin: Same for CC(C)(C)C(O)C#CC(F)(F)Br (stereo not drawn) [MNR-3-85]
stdout: > 10 µM

meta.source: patent US11679098B2
